Reported pKd values for the following binders.
# ASSAY SYSTEM: T1, DLL3xCD3 TCE SEQ ID NO 104
# T1 construct: Single-chain T cell engager; also called DLL3×CD3ε TCE
# PROTOCOL: SPR, peptide immobilised on CM5 (PDEA), TCE as analyte, kinetic 1:1 fit
Where no end group is shown, it is not given here. [ ]: non-standard residue; d: D form. pGlu = O=C1CC[C@@H](C(=O)O)N1
Scale note: pKd = -log10(concentration in M).

- BINDER: "[pGlu]DGEEELKGC [pGlu-DGEEELKGC]"
  pKd: 7.69
- BINDER: "[pGlu]DGTEELKGC (Position 1 is written E for pGlu) [pGlu-DGTEELKGC]"
  pKd: 7.83

Continue with the next binder.
pKd reported for this binder [pGlu]DGNEELKGC (also called ID 14974) [pGlu-DGNEELKGC] : 8.89
